# STUDY SYSTEM: 2-Hydroxyacid oxidase 1 (Mus musculus)
# ASSAY NAME: Inhibition of mouse recombinant glycolate oxidase expressed in Escherichia coli at 25 uM using glycolate as substrate after 1 min by sulfonated DCIP dye-based assay relative to control
Label TRUE for high-side inhibition (at or above 30%) and FALSE for low-side inhibition (below it).

> print(dat)
                                    molecule                            study.system  label.value
 1  O=C(O)c1ccc(-c2ccccc2COc2cc(F)cc(F)c2)cc1O  2-Hydroxyacid oxidase 1 (Mus musculus)         TRUE
 2    O=C(O)c1ccc(-c2ccc(OCc3ccccc3)cc2)cc1O  2-Hydroxyacid oxidase 1 (Mus musculus)         TRUE
 3                 O=C(O)c1ccc(-c2ccsc2)cc1O  2-Hydroxyacid oxidase 1 (Mus musculus)         TRUE
 4    O=Cc1ccc(-c2ccc3cc(O)c(C(=O)O)cc3c2)o1  2-Hydroxyacid oxidase 1 (Mus musculus)        FALSE
 5         O=Cc1ccc(-c2ccc(C(=O)O)c(CO)c2)o1  2-Hydroxyacid oxidase 1 (Mus musculus)        FALSE
 6                 O=C(O)c1ccc(-c2ccoc2)cc1O  2-Hydroxyacid oxidase 1 (Mus musculus)        FALSE
 7          COc1cccc(-c2ccc(C(=O)O)c(O)c2)c1  2-Hydroxyacid oxidase 1 (Mus musculus)         TRUE
 8                        O=C(O)c1cccc(F)c1O  2-Hydroxyacid oxidase 1 (Mus musculus)        FALSE
 9                 O=C(O)c1cc(-c2ccsc2)ccc1O  2-Hydroxyacid oxidase 1 (Mus musculus)        FALSE
10    O=C(O)c1cc(-c2ccc(OCc3ccccc3)cc2)ccc1O  2-Hydroxyacid oxidase 1 (Mus musculus)         TRUE
11                  O=Cc1ccc(-c2ccc(O)cc2)o1  2-Hydroxyacid oxidase 1 (Mus musculus)        FALSE
12  COc1ccc(COc2ccc(-c3ccc(O)c(C(=O)O)c3)cc2)cc1  2-Hydroxyacid oxidase 1 (Mus musculus)         TRUE
13          COC(=O)c1ccc(-c2ccc(C=O)o2)cc1OC  2-Hydroxyacid oxidase 1 (Mus musculus)        FALSE
14  N[C@@H](CCC(=O)Nc1ccc(O)c(C(=O)O)c1)C(=O)O  2-Hydroxyacid oxidase 1 (Mus musculus)        FALSE
15          O=Cc1ccc(-c2ccc(O)c(C(=O)O)c2)o1  2-Hydroxyacid oxidase 1 (Mus musculus)         TRUE
16          O=Cc1ccc(-c2ccc(O)c(C(=O)O)c2)s1  2-Hydroxyacid oxidase 1 (Mus musculus)         TRUE
17             O=C(O)c1ccc(-c2ccc(O)cc2)cc1O  2-Hydroxyacid oxidase 1 (Mus musculus)         TRUE
18                 O=C(O)c1cnc2cc(Cl)ccc2c1O  2-Hydroxyacid oxidase 1 (Mus musculus)        FALSE
19  O=C(O)c1ccc(-c2ccccc2COc2cccc(C(F)(F)F)c2)cc1O  2-Hydroxyacid oxidase 1 (Mus musculus)         TRUE
20  O=C(O)c1cc(-c2ccccc2COc2cc(F)cc(F)c2)ccc1O  2-Hydroxyacid oxidase 1 (Mus musculus)         TRUE
21                 CC(=O)c1ccc(O)c(C(=O)O)c1  2-Hydroxyacid oxidase 1 (Mus musculus)        FALSE
22                O=C(O)c1nnsc1Sc1ccc(Cl)cc1  2-Hydroxyacid oxidase 1 (Mus musculus)         TRUE
23                 O=C(O)c1cc2cc(Br)ccc2cc1O  2-Hydroxyacid oxidase 1 (Mus musculus)         TRUE
24             O=C(O)c1cc(-c2ccc(CO)o2)ccc1O  2-Hydroxyacid oxidase 1 (Mus musculus)         TRUE
25                 O=C(O)c1ccc(-c2ccco2)cc1O  2-Hydroxyacid oxidase 1 (Mus musculus)         TRUE
26         Nc1ccc(O)c(C(=O)O)c1 [MESALAMINE]  2-Hydroxyacid oxidase 1 (Mus musculus)         TRUE

====

Each record here notes measured IC50.
# STUDY SYSTEM: 2-Hydroxyacid oxidase 1 (Mus musculus, UniProt Q9WU19)
# Sequence (Q9WU19 whole entry): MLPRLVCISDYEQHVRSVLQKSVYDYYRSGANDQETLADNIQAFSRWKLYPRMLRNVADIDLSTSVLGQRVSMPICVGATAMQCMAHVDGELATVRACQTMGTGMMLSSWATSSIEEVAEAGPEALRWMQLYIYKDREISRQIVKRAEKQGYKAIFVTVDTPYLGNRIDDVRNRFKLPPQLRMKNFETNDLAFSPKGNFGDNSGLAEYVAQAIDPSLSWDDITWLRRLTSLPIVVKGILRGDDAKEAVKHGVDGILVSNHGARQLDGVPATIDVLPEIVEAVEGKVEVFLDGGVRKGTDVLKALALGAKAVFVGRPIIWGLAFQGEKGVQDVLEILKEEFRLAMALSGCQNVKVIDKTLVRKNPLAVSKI
# ASSAY NAME: Inhibition of mouse recombinant glycolate oxidase expressed in Escherichia coli using glycolate as substrate by sulfonated DCIP dye-based assay
MEASURED METRIC: IC50 (µM)

> print(dat)
                             compound.string                              study.system  unit.string  experimental.result
 1                 O=C(O)c1ccc(-c2ccco2)cc1O  2-Hydroxyacid oxidase 1 (Mus musculus, UniProt Q9WU19)           µM                 39.3
 2    O=C(O)c1cc(-c2ccc(OCc3ccccc3)cc2)ccc1O  2-Hydroxyacid oxidase 1 (Mus musculus, UniProt Q9WU19)           µM                 14.8
 3  O=C(O)c1cc(Oc2ccc([N+](=O)[O-])cc2)c2ccccc2c1O  2-Hydroxyacid oxidase 1 (Mus musculus, UniProt Q9WU19)           µM                  2.9
 4          O=Cc1ccc(-c2ccc(C(=O)O)c(O)c2)o1  2-Hydroxyacid oxidase 1 (Mus musculus, UniProt Q9WU19)           µM                 34.5
 5             O=C(O)c1cc(-c2ccc(CO)o2)ccc1O  2-Hydroxyacid oxidase 1 (Mus musculus, UniProt Q9WU19)           µM                  4.6
 6                 O=C(O)c1cc2cc(Br)ccc2cc1O  2-Hydroxyacid oxidase 1 (Mus musculus, UniProt Q9WU19)           µM                 39.9
 7          O=Cc1ccc(-c2ccc(O)c(C(=O)O)c2)o1  2-Hydroxyacid oxidase 1 (Mus musculus, UniProt Q9WU19)           µM                 38.2
 8  O=C(O)c1cc(-c2ccccc2COc2cc(F)cc(F)c2)ccc1O  2-Hydroxyacid oxidase 1 (Mus musculus, UniProt Q9WU19)           µM                  5.8
 9  O=C(O)c1ccc(-c2ccccc2COc2cccc(C(F)(F)F)c2)cc1O  2-Hydroxyacid oxidase 1 (Mus musculus, UniProt Q9WU19)           µM                  4.4
10    O=C(O)c1ccc(-c2ccc(OCc3ccccc3)cc2)cc1O  2-Hydroxyacid oxidase 1 (Mus musculus, UniProt Q9WU19)           µM                 10.4
11                 O=C(O)c1ccc(-c2ccsc2)cc1O  2-Hydroxyacid oxidase 1 (Mus musculus, UniProt Q9WU19)           µM                 21.6
12  O=C(O)c1ccc(-c2ccc([N+](=O)[O-])cc2)cc1O  2-Hydroxyacid oxidase 1 (Mus musculus, UniProt Q9WU19)           µM                 19.7
13                      Nc1ccc(O)c(C(=O)O)c1  2-Hydroxyacid oxidase 1 (Mus musculus, UniProt Q9WU19)           µM                  7.8
14                 O=C(O)c1cc(-c2cccs2)ccc1O  2-Hydroxyacid oxidase 1 (Mus musculus, UniProt Q9WU19)           µM                 39.5
15          COc1cccc(-c2ccc(C(=O)O)c(O)c2)c1  2-Hydroxyacid oxidase 1 (Mus musculus, UniProt Q9WU19)           µM                 19.5
16  O=C(O)c1ccc(-c2ccccc2COc2cc(F)cc(F)c2)cc1O  2-Hydroxyacid oxidase 1 (Mus musculus, UniProt Q9WU19)           µM                  8.3
17                O=C(O)c1nnsc1Sc1ccc(Cl)cc1  2-Hydroxyacid oxidase 1 (Mus musculus, UniProt Q9WU19)           µM                 43.5
18                 O=C(O)c1ccc(-c2cccs2)cc1O  2-Hydroxyacid oxidase 1 (Mus musculus, UniProt Q9WU19)           µM                 32.5
19             O=C(O)c1ccc(-c2ccc(CO)o2)cc1O  2-Hydroxyacid oxidase 1 (Mus musculus, UniProt Q9WU19)           µM                  7.9
20             O=C(O)c1ccc(-c2ccc(O)cc2)cc1O  2-Hydroxyacid oxidase 1 (Mus musculus, UniProt Q9WU19)           µM                 13.5
21  O=C(O)c1cc(-c2ccccc2COc2cccc(C(F)(F)F)c2)ccc1O  2-Hydroxyacid oxidase 1 (Mus musculus, UniProt Q9WU19)           µM                  3.5
22  COc1ccc(COc2ccc(-c3ccc(O)c(C(=O)O)c3)cc2)cc1  2-Hydroxyacid oxidase 1 (Mus musculus, UniProt Q9WU19)           µM                  9.5
23  COc1ccc(COc2ccc(-c3ccc(C(=O)O)c(O)c3)cc2)cc1  2-Hydroxyacid oxidase 1 (Mus musculus, UniProt Q9WU19)           µM                 13.8
24          O=Cc1ccc(-c2ccc(O)c(C(=O)O)c2)s1  2-Hydroxyacid oxidase 1 (Mus musculus, UniProt Q9WU19)           µM                  9.4
25  O=C(O)c1cc(Sc2nnnn2-c2ccccc2)c2ccccc2c1O  2-Hydroxyacid oxidase 1 (Mus musculus, UniProt Q9WU19)           µM                 11.1
